- Test system: C. glutamicum (Cg, ATCC 13032)
- test-description: microbe, parasite or virus in culture
- Assay type: cell-based, Corynebacterium glutamicum
- condition-summary: ATCC 13032, 24 h
- Protocol: All cyclic and linear peptides were screened for antibacterial activity against four Gram-positive strains: B. subtilis (Bs, ATCC 23857), C. glutamicum (Cg, ATCC 13032), S. aureus (Sa, ATCC 9144) and S. epidermidis RP62A (Se, ATCC 35984), and two Gram-negative strains: E. coli (Ec, ATCC 25922) and P. aeruginosa (Pa, ATCC 27853). The activity was assessed using a broth microdilution assay according to a modified CLSI-based method. […]
Where a SMILES comes first, the peptide text is derived from it. Bridges are numbered along the chain shown (N, C = ends). The star is where a group is joined. Lauroyl = CCCCCCCCCCCC(=O)*; Decanoyl = CCCCCCCCCC(=O)*; Octanoyl = CCCCCCCC(=O)*
assay-metric: Antimicrobial Activity (MIC) Gram + Cg (µg/mL)
Report as a plain number; the unit µg/mL is understood.

Consider the worked cases shown below.
compound: CCCCCCCC(=O)N[C@H]1CSSC[C@@H](C(=O)N[C@@H](CCCCN)C(=O)N[C@@H](CC(C)C)C(N)=O)NC(=O)[C@H](CCCCN)NC(=O)[C@H](Cc2c[nH]c3ccccc23)NC(=O)CNC(=O)CNC(=O)[C@@H]2CCCN2C(=O)[C@H](CCCCN)NC(=O)[C@H](CCCCN)NC(=O)CNC1=O [Peptide C8-cTurg-1, C8 -(CGKKPGGWKC)KL-NH2] (Octanoyl-CGKKPGGWKCKL-NH2; disulfide 1-10)
Antimicrobial Activity (MIC) Gram + Cg (µg/mL): 4

compound: CCCCCCCCCCCC(=O)N[C@H]1CSSC[C@@H](C(=O)N[C@@H](CCCCN)C(=O)N[C@@H](CC(C)C)C(N)=O)NC(=O)[C@H](CCCCN)NC(=O)[C@H](Cc2c[nH]c3ccccc23)NC(=O)CNC(=O)CNC(=O)[C@@H]2CCCN2C(=O)[C@H](CCCCN)NC(=O)[C@H](CCCCN)NC(=O)CNC1=O [Peptide C12-cTurg-1, C12 -(CGKKPGGWKC)KL-NH2] (Lauroyl-CGKKPGGWKCKL-NH2; disulfide 1-10)
Antimicrobial Activity (MIC) Gram + Cg (µg/mL): 2

compound: CCCCCCCCCC(=O)N[C@@H](CS)C(=O)NCC(=O)N[C@@H](CCCCN)C(=O)N[C@@H](CCCCN)C(=O)N[C@@H](Cc1c[nH]c2ccccc12)C(=O)N[C@@H](Cc1c[nH]c2ccccc12)C(=O)NCC(=O)N[C@@H](Cc1c[nH]c2ccccc12)C(=O)N[C@@H](CCCCN)C(=O)N[C@@H](CS)C(=O)N[C@@H](CCCCN)C(=O)N[C@@H](CC(C)C)C(N)=O [Peptide C10-Turg-2, C10- CGKKWWGWKC KL-NH2] (Decanoyl-CGKKWWGWKCKL-NH2)
Antimicrobial Activity (MIC) Gram + Cg (µg/mL): 4

compound: CCCCCCCCCC(=O)N[C@H]1CSSC[C@@H](C(=O)N[C@@H](CCCCN)C(=O)N[C@@H](CC(C)C)C(N)=O)NC(=O)[C@H](CCCCN)NC(=O)[C@H](Cc2c[nH]c3ccccc23)NC(=O)CNC(=O)[C@H](Cc2c[nH]c3ccccc23)NC(=O)[C@H](Cc2c[nH]c3ccccc23)NC(=O)[C@H](CCCCN)NC(=O)[C@H](CCCCN)NC(=O)CNC1=O [Peptide C10-cTurg-2, C10- (CGKKWWGWKC)KL-NH2] (Decanoyl-CGKKWWGWKCKL-NH2; disulfide 1-10)
Antimicrobial Activity (MIC) Gram + Cg (µg/mL): 4

Checklist item: Antimicrobial Activity (MIC) Gram + Cg tested on C. glutamicum (Cg, ATCC 13032), entry CCCCCCCCCCCC(=O)N[C@@H](CS)C(=O)NCC(=O)N[C@@H](CCCNC(=N)N)C(=O)N[C@@H](CCCNC(=N)N)C(=O)N[C@@H](Cc1c[nH]c2ccccc12)C(=O)NCC(=O)N[C@@H](Cc1c[nH]c2ccccc12)C(=O)N[C@@H](Cc1c[nH]c2ccccc12)C(=O)N[C@@H](CCCNC(=N)N)C(=O)N[C@@H](CS)C(=O)N[C@@H](CCCNC(=N)N)C(=O)N[C@@H](CC(C)C)C(N)=O [Peptide C12-Turg-6, C12- CGRRWGWWRC RL-NH2] (Lauroyl-CGRRWGWWRCRL-NH2) , value? 16

Where do these numbers come from? They come from paper PMC9696794.
